Value source: the supplement of paper PMC10065799

# phosphorylation enrichment annotations
- TESTED TARGET: FGFR1 (UniProt P11362)
- Sequence (P11362 whole entry, looked up): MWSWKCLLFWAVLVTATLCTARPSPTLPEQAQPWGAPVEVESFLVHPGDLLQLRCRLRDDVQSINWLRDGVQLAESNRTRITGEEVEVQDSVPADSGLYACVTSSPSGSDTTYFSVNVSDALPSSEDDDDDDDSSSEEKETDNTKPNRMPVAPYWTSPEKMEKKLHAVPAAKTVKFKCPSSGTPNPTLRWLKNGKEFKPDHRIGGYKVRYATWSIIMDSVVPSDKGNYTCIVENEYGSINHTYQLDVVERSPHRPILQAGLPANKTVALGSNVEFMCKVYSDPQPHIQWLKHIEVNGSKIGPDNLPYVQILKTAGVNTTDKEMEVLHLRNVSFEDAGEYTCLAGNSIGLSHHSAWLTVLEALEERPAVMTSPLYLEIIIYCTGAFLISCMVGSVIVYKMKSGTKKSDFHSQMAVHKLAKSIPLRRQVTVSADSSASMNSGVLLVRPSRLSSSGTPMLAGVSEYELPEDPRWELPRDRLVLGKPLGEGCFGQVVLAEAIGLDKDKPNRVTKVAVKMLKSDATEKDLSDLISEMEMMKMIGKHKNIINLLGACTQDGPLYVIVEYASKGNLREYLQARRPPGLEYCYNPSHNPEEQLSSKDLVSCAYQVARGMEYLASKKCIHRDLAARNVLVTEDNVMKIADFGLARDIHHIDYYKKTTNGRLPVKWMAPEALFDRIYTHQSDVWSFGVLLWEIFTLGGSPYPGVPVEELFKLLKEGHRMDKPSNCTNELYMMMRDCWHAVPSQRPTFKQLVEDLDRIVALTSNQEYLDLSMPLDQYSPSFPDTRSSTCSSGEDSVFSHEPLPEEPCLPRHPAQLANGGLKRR
- ASSAY SUMMARY: phosphorylation enrichment, bacterial display (enrichment ratio); higher = better substrate or ligand; peptides without Tyr show the background;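 note: 11-residue human phosphosite peptides and single-mutation variants displayed on the E. coli surface, counted by deep sequencing, each peptide's frequency after selection divided by its frequency in the unselected input library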;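 note: frequency after pTyr selection over input frequency; kinase dosed for 20-30% of maximal phosphorylation in three min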

SEQ STRING: YSIDHYLGKEM [G6PD_Y202_R198S]
phosphorylation enrichment: 0.589
--
SEQ STRING: GSERDYTFEEL [EIF2S2_Y174_YF]
phosphorylation enrichment: 0.602
--
SEQ STRING: LNPFIYSLRNC [OR1A2_Y288_W293C]
phosphorylation enrichment: 0.902
--
SEQ STRING: NLVSEYQQYQD [TUBB3_Y422_D417N]
phosphorylation enrichment: 0.531
--
SEQ STRING: IRFSDYVEVAD [PHACTR1_Y525]
phosphorylation enrichment: 1.88
--
SEQ STRING: GDLTDYLMKIL [ACTA1_Y190_R185G]
phosphorylation enrichment: 0.437
--
SEQ STRING: VDSNPYSRLMA [UBA5_Y53]
phosphorylation enrichment: 0.468
--
SEQ STRING: YKIYRYTLNDN [FN1_Y1975_L1974R]
phosphorylation enrichment: 0.439
--
SEQ STRING: GDAMLYFPSVS [GPR143_Y177_A173D_YF]
phosphorylation enrichment: 0.801
--
SEQ STRING: LLKKVYLMLDN [STAT1_Y203_M202V]
phosphorylation enrichment: 0.968
--
SEQ STRING: NFFEFYVDDPL [GCHFR_Y48_P53L_YF]
phosphorylation enrichment: 0.501
--
SEQ STRING: MFCAGYDTKQE [F10_Y407]
phosphorylation enrichment: 0.518
--
SEQ STRING: GGGGSYNNFGN [HNRNPA1_Y312_D314N]
phosphorylation enrichment: 0.362
--
SEQ STRING: RKLVDYDSAQH [BIN1_Y150_R154Q]
phosphorylation enrichment: 0.425
